Tested on: RAW264.7
procedure-details: Inhibition of NO production in LPS-stimulated mouse RAW264.7 cells incubated for 24 hrs by Griess reagent-based assay
Assay type: functional, cell-based
test-parameters: RAW264.7, 24 h
pIC50: −log10 of the molar value.
Quick rule: pIC50 of at least 5 means Met, below that means Not met.

Some solved entries appear below for comparison.
COc1c(O)cc2oc3cc(O)c(CCC(C)(C)O)c(O)c3c(=O)c2c1CC=C(C)C :: Met
N=C(N)NN [PIMAGEDINE] :: Not met
CC(C)=CCC/C(C)=C/CC/C(C)=C/CCC(C)(O)CCc1c(O)c(O)cc2oc3cc(O)cc(O)c3c(=O)c12 (racemic) :: Met

Would you kindly look at the next entry?
Entry COc1c(O)cc2oc3cc4c(c(O)c3c(=O)c2c1CC=C(C)C)C=CC(C)(C)O4 [MANGOSTANIN] : is its pIC50 no less than 5? Not met

---

measured-on: Alpha glucosidase (Homo sapiens, UniProt O43451+P10253+P14410+Q2M2H8)
procedure-details: Inhibition of alpha-glucosidase (unknown origin) at > 100 uM using p-nitrophenyl alpha-D-glucoside as substrate preincubated for 0.5 hrs followed substrate addition and measured after 1 hr by colorimetric method
Type: protein assay
Activity calls are given as the source filed them. The rule behind the calls is not given here.
property-label: inhibition

CC(C)=CCC/C(C)=C/Cc1c(O)cc2oc3c(O)cccc3c(=O)c2c1O :: inactive
COc1c(O)cc2oc3cc(O)c(CCC(C)(C)O)c(O)c3c(=O)c2c1CC=C(C)C :: inactive
CC1(C)CCc2c(cc3oc4c(O)c(O)ccc4c(=O)c3c2O)O1 :: inactive
CC(C)=CC[C@@H]1C[C@@]23CCC(C)(C)OC2=C(C(=O)c2ccccc2)C(=O)[C@H](C3=O)[C@@]1(C)CCCC(C)(C)O :: inactive

Then there is this molecule:
Record lookup: for Alpha glucosidase (Homo sapiens, UniProt O43451+P10253+P14410+Q2M2H8), what inhibition belongs to CC(C)(O)CCC[C@@]1(C)[C@H](CCC(C)(C)O)C[C@@]23CCC(C)(C)OC2=C(C(=O)c2ccccc2)C(=O)[C@@H]1C3=O ? inactive

---

measured-on: Alpha glucosidase (Homo sapiens, UniProt O43451+P10253+P14410+Q2M2H8)
procedure-details: Inhibition of alpha-glucosidase (unknown origin) using p-nitrophenyl alpha-D-glucoside as substrate preincubated for 0.5 hrs followed substrate addition and measured after 1 hr by colorimetric method
Format: protein assay
Recorded IC50, one value per entry.
Just the number please, in µM, no unit attached.

COc1c(O)cc2oc3cc4c(c(O)c3c(=O)c2c1CC=C(C)C)C=CC(C)(C)O4 [MANGOSTANIN] :: 11.4
CC(C)=CCC/C(C)=C/CC/C(C)=C/Cc1c(O)c(O)cc2oc3cc(O)cc(O)c3c(=O)c12 :: 76.2
COc1cc2oc3cc(O)c(OC)c(CC=C(C)C)c3c(=O)c2c(O)c1CC=C(C)C :: 22.6
CC(C)=CCC/C(C)=C/CCC(C)(O)CCc1c(O)c(O)cc2oc3cc(O)cc(O)c3c(=O)c12 (racemic) :: 25.4
COc1c(O)cc2oc3cc(O)c(CC=C(C)C)c(O)c3c(=O)c2c1C/C=C(\C)CCC=C(C)C [COWANIN] :: 37.4

Query (molecule): COc1c(O)cc2oc3cc(O)c(C/C=C(\C)CO)c(O)c3c(=O)c2c1C/C=C(\C)CCC=C(C)C ; field requested: IC50 28.7

Query (molecule): CC(C)=CCC/C(C)=C/CC/C(C)=C/CCC(C)(O)CCc1c(O)c(O)cc2oc3cc(O)cc(O)c3c(=O)c12 (racemic) ; field requested: IC50 15.4
